- Tested on: HOP-92 NSCLC
- test_description: NCI-60 one-dose screen, 48 h
- conditions: 10 µM unless noted
- Procedure: Growth inhibition of the HOP-92 human Non-Small Cell Lung tumor cell line is measured as a screen for anti-cancer activity. Cells are grown in 96 well plates and exposed to the test compound for 48 hours. Compounds are tested at a single concentration, which is 10^-5 M for most compounds. The reported endpoint is percent growth (GI% or GIPRCNT), where numbers from 0 - 100% represent growth inhibition, and numbers from -100% - 0 represent cell death. […]
The panel holds about 83,000 compounds, 20% with a hit somewhere; the sample as a whole holds those more often. The source made the active and inactive calls. Rule for the calls: active = growth percent below 10; inactive = the rest.
Lab note: assign the record to one of true for active, false for inactive

As a guide, the following entries are already answered.
INSERT INTO measurements (molecule, discrete_label) VALUES
  ('CN1CCN(Cc2ccc(C(=O)Nc3cncc(C#Cc4cnc(N)c5ccccc45)c3)cc2C(F)(F)F)CC1', 'false'),
  ('Cn1nc(C(F)(F)F)c(-c2ccc(Cl)c(C(F)(F)F)c2)c1-c1ccc(OCc2ccc(Cl)cc2)cc1O', 'true'),
  ('O=c1[nH]nnc2c1ncn2C1OC(CO)C(O)C1O (stereo not given)', 'false'),
  ('Oc1c(CN2CCN(c3ccccc3F)CC2)cc(Br)c2cccnc12', 'true');

[ask] Test call, this molecule: `Cc1ccc2c(n1)C(=O)C(Oc1ccc(Br)cc1)=CC2=O`
[reply] false

Origin of the recorded values: PubChem BioAssay (NCI)
